Cited source: the NIST ThermoML archive (doi:10.1021/je900302n)

Measured Critical pressure values are reported for all entries that follow.
conditions: Liquid; pulse heating
Numbers only here, please. The scale is kPa.

Reference set (3 entries):
{"columns": ["compound", "Critical pressure, kPa"],
 "data": [
  ["CCC[O-].CCC[O-].CCC[O-].CCC[O-].[Ti+4]", 1150],
  ["CCCCCCCCCC[O][Ti]([O]CCCCCCCCCC)([O]CCCCCCCCCC)[O]CCCCCCCCCC", 610],
  ["CCCCCCC[O][Ti]([O]CCCCCCC)([O]CCCCCCC)[O]CCCCCCC", 730]
]}

Entry `CC[O-].CC[O-].CC[O-].CC[O-].[Ti+4]` , Critical pressure reported as 1400

Entry `CCCCC[O][Ti]([O]CCCCC)([O]CCCCC)[O]CCCCC` , Critical pressure reported as 910

Entry `CCCCCC[O][Ti]([O]CCCCCC)([O]CCCCCC)[O]CCCCCC` , Critical pressure reported as 780

----------
Measured Critical pressure values are reported for all entries that follow.
details: Liquid; pulse heating
Numbers only here, please. The scale is kPa.

{"columns": ["compound", "Critical pressure, kPa"],
 "data": [
  ["CCCCCCCCC[O][Ti]([O]CCCCCCCCC)([O]CCCCCCCCC)[O]CCCCCCCCC", 630],
  ["CCCC[O-].CCCC[O-].CCCC[O-].CCCC[O-].[Ti+4] [titanium(IV) butan-1-olate]", 1020]
]}

Entry `CCCCCCCC[O][Ti]([O]CCCCCCCC)([O]CCCCCCCC)[O]CCCCCCCC` , Critical pressure reported as 660
